test system: Escherichia coli TOP10; assay: shrunken log2 fold change of peptide-encoding DNA abundance (4.5 h post-induction vs induction); higher = less antimicrobial activity (less host growth inhibition); conditions: time post-induction: 4.5 h; library: site-saturation at positions 5, 18, 19, 20;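 note: peptides expressed intracellularly from a pBAD plasmid library in pooled LB shake-flask culture, induced with 0.3% L-arabinose, DNA abundance read by NGS, three biological replicates, DESeq2 with apeglm shrinkage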
Parameter shrunken log2 fold change: see the listing below.
Form: value (number only, do not type unit).

The cases that follow already have their shrunken log2 fold change on record.
| sequence code | experimental target | measured result |
| --- | --- | --- |
| RRIRVRPPRLPRPRPRPSFQPRP | Escherichia coli TOP10 | -0.22 |
| RRIRKRPPRLPRPRPRPWMAPRP | Escherichia coli TOP10 | 0.102 |
| RRIRIRPPRLPRPRPRPWTLPRP | Escherichia coli TOP10 | -0.0808 |
| RRIRSRPPRLPRPRPRPEHIPRP | Escherichia coli TOP10 | 0.0843 |
| RRIRIRPPRLPRPRPRPQMAPRP | Escherichia coli TOP10 | -0.064 |
| RRIRERPPRLPRPRPRPEQCPRP | Escherichia coli TOP10 | -0.0274 |
| RRIRQRPPRLPRPRPRPWGCPRP | Escherichia coli TOP10 | -0.122 |
| RRIRLRPPRLPRPRPRPECFPRP | Escherichia coli TOP10 | 0.226 |

Please look at this sequence and report its shrunken log2 fold change: RRIRARPPRLPRPRPRPDTWPRP 1.13

The reported numbers originate from the supplement of paper PMC9112550.
